test: in vivo; conditions: athymic nude, mouse, po, 10 mg/kg
Description: Cmax in athymic nude mouse at 10 mg/kg, po
Endpoint Label: Cmax (nM)

Reference set (2 entries):
Cmax reported for this molecule CC(C)(C)c1cc(NC(=O)Nc2ccc(-c3cn4c(n3)sc3cc(OCCCN5CCN(S(C)(=O)=O)CC5)ccc34)cc2)no1 : 1580

Cmax reported for this molecule CC(C)(C)c1cc(NC(=O)Nc2ccc(-c3cn4c(n3)sc3cc(C(=O)O)ccc34)cc2)no1 : 2090

A: CCN1CCN(C(=O)c2ccc3c(c2)sc2nc(-c4ccc(NC(=O)Nc5cc(C(C)(C)C)on5)cc4)cn23)CC1
B: CC(C)(C)c1cc(NC(=O)Nc2ccc(-c3cn4c(n3)sc3cc(CCCN5CCOCC5)ccc34)cc2)no1
Input: I would appreciate it if you could say which entry, A or B , has the lower Cmax value. Give the label under which the chosen entry appears.
Output: A
(A: 490 nM, B: 2190 nM)
